In this section, each of the compounds is paired with its reported IC50.
# Test system: PA-1
# testMethodNotes: Antiproliferative activity against human PA1 cells after 48 hrs by resazurin reduction test
# Assay type: functional, cell-based
# measurementParameters: PA-1, 48 h
Reply with just the number (in nM).

Example entries begin here.
NC(=O)c1ccc(-c2cnc(N)nc2-c2c[nH]c3ccccc23)cc1; 38000
CC(=O)c1ccc(-c2cnc(N)nc2-c2cn(C)c3ccccc23)cc1; 50
Cn1cc(-c2nc(N)ncc2-c2ccc(-c3ccccc3)cc2)c2ccccc21; 80

Now let's try a different one.
Task item: # query: IC50 of entry Nc1ncc(-c2ccc(C(F)(F)F)cc2)c(-c2c[nH]c3ccccc23)n1
Reply: 90
